Here the recorded CC50 is given for each entry.
- Protocol description: in vitro
- Protocol conditions: African green monkey

Reference set (8 entries):
>>> df
                                   molecule  value_reported
0  CC(=O)Nc1ccc(NC(=O)c2cccc(C#Cc3ccccn3)c2)cc1 [Compound 55]         > 30 µM
1  CC(C)OC(=O)c1ccc(NC(=O)c2cccc(C#Cc3ccccn3)c2)cc1 [Compound 65]         > 30 µM
2  O=C(Nc1cccc(C#Cc2ccccn2)c1)c1ccc(N2CCCCS2(=O)=O)cc1 [Compound 77]         > 30 µM
3  COc1cc(C#Cc2ccccn2)cc(NC(=O)c2ccc3c(c2)CCCC(=O)N3)c1 [Compound 51]         12.2 µM
4  O=C(Nc1cccc(C#Cc2ccccn2)c1)c1ccc(N2CCCC3(CCC3)C2=O)cc1 [Compound 36]         15.3 µM
5  COC(=O)c1ccc(NC(=O)c2cccc(C#Cc3ccccn3)c2)cc1 [Compound 63]         > 30 µM
6  O=C(Nc1cccc(C#Cc2ccccn2)c1)c1ccc(NC(=O)C2CC2)cc1 [Compound 8]         > 30 µM
7  O=C(Nc1cc(C#Cc2ccccn2)cc(OC(F)(F)F)c1)c1ccc(N2CCCCC2=O)cc1 [Compound 50]         > 30 µM

Q: Report CC50 for O=C(Nc1cccc(C#Cc2ccccn2)c1)c1ccc(N2CCCNC2=O)cc1 [Compound 15] please.
Ans: > 30 µM

Q: Report CC50 for CC1(C)CN(c2ccc(C(=O)Nc3cccc(C#Cc4ccccn4)c3)cc2)C1=O [Compound 21] please.
Ans: > 30 µM

Q: Report CC50 for Cc1cc(C#Cc2ccccn2)nc(NC(=O)c2ccc3c(c2)CCC(=O)N3)c1 [Compound 47] please.
Ans: > 30 µM

Q: Report CC50 for O=C(Nc1ccc(NC(=O)N2CCC2)cc1)c1cccc(C#Cc2ccccn2)c1 [Compound 60] please.
Ans: > 30 µM

Q: Report CC50 for O=C(Nc1ccc(N2CCCCC2=O)cc1)c1cccc(C#Cc2ccccn2)c1 [Compound 59] please.
Ans: > 30 µM

Q: Report CC50 for CCOP(=O)(OCC)c1ccc(NC(=O)c2cccc(C#Cc3ccccn3)c2)cc1 [Compound 73] please.
Ans: > 30 µM

Q: Report CC50 for COC(=O)c1cccc(NC(=O)c2cccc(C#Cc3ccccn3)c2)c1 [Compound 64] please.
Ans: 21.7 µM

Q: Report CC50 for COc1cc(C#Cc2ccccn2)cc(NC(=O)c2ccc3c(c2)CCC(=O)N3)c1 [Compound 46] please.
Ans: > 30 µM

Q: Report CC50 for CC(=O)Nc1ccc(C(=O)Nc2cccc(C#Cc3ccccn3)c2)cc1F [Compound 29] please.
Ans: > 30 µM

Q: Report CC50 for CCC(=O)Nc1ccc(C(=O)Nc2cccc(C#Cc3ccccn3)c2)cc1 [Compound 6] please.
Ans: > 30 µM

====

- Protocol description: in vitro
- Protocol conditions: African green monkey
Readout label: CC50

>>> print(df.to_string())
                                   compound  value_reported
0  O=C(Nc1cccc(C#Cc2ccccn2)c1)c1ccc(N2CCN(C3CCC3)CC2=O)cc1 [Compound 32]         23.1 µM
1  O=C(Nc1cccc(C#Cc2ccccn2)c1)c1ccc(C(=O)NC2CCC2)cc1 [Compound 38]         > 30 µM
2  O=C(Nc1ccc(C(O)(C(F)(F)F)C(F)(F)F)cc1)c1cccc(C#Cc2ccccn2)c1 [Compound 68]         9.72 µM
3  CC(=O)Nc1ccc(C(=O)Nc2cccc(C#Cc3ccccn3)c2)cc1 [Compound 5]         > 30 µM
4  O=C(Nc1cccc(C#Cc2ccccn2)c1)c1ccc(N2CCCCCC2=O)cc1 [Compound 25]         > 30 µM

Q: Report CC50 for O=C(Nc1ccc(N2CCCCS2(=O)=O)cc1)c1cccc(C#Cc2ccccn2)c1 [Compound 70] please.
Ans: > 30 µM

Q: Report CC50 for O=C(Nc1cccc(C#Cc2ccccn2)c1)c1ccc(N2CCN(CC3CCC3)CC2=O)cc1 [Compound 33] please.
Ans: > 30 µM

Q: Report CC50 for COc1cc(C#Cc2ccccn2)cc(NC(=O)c2ccc(N3CCCCS3(=O)=O)cc2)c1 [Compound 76] please.
Ans: > 30 µM

====

- System: USA_WA1/2020 SARS CoV-2
- Protocol description: microbe, parasite or virus in culture
- Format: cell-based
- Protocol conditions: Severe acute respiratory syndrome coronavirus 2, Vero C1008, 72 h, read-out: SARS-2 EC50 (μM) VeroE6
Here the recorded EC50 is given for each entry.
Write the value in µM as a bare number.

>>> print(df.to_string())
                                   compound  readout_label  value_reported
0  CCOP(=O)(OCC)c1ccc(NC(=O)c2cccc(C#Cc3ccccn3)c2)cc1 [Compound 73]           EC50            0.45
1  O=C(Nc1ccc(C(=O)NC2CCCC2)cc1)c1cccc(C#Cc2ccccn2)c1 [Compound 62]           EC50            0.48
2  O=C(Nc1cccc(C#Cc2ccccn2)c1)c1ccc(N2CCC2=O)cc1 [Compound 20]           EC50            11.7
3  N#Cc1cc(C#Cc2ccccn2)cc(NC(=O)c2ccc(N3CCCCC3=O)cc2)c1 [Compound 78]           EC50            1.97
4  CC(=O)Nc1ccc(NC(=O)c2cccc(C#Cc3ccccn3)c2)cc1 [Compound 55]           EC50            4.18

Pending compound:
Q: What reported EC50 corresponds to O=C(Nc1cccc(C#Cc2ccccn2)c1)c1ccc(NC(=O)C2CCC2)cc1 [Compound 9] on USA_WA1/2020 SARS CoV-2?
Ans: 0.26

====

- System: USA_WA1/2020 SARS CoV-2
- Protocol description: microbe, parasite or virus in culture
- Assay type: cell-based
- Protocol conditions: Severe acute respiratory syndrome coronavirus 2, Vero C1008, 72 h, read-out: SARS-2 EC50 (μM) VeroE6
Here the recorded log10 EC50 is given for each entry.
Base-10 log of EC50, unit µM.

Reference set (8 entries):
>>> df
                                   compound  readout_label  value_reported
0  COc1cc(C#Cc2ccccn2)cc(C(=O)Nc2ccc(CC3CC(=O)NC3=O)cc2)c1 (stereo not shown) [Compound 79]     log10 EC50            0.91
1  CC(C)(C)c1ccc(NC(=O)c2cccc(C#Cc3ccccn3)c2)cc1 [Compound 67]     log10 EC50            0.63
2  CC1(C)CN(c2ccc(C(=O)Nc3cccc(C#Cc4ccccn4)c3)cc2)C1=O [Compound 21]     log10 EC50           -0.49
3  COc1cc(C#Cc2ccccn2)cc(NC(=O)c2ccc3c(c2)CCCC(=O)N3)c1 [Compound 51]     log10 EC50           -0.28
4  CN1CCN(c2ccc(C(=O)Nc3cccc(C#Cc4ccccn4)c3)cc2)C1=O [Compound 16]     log10 EC50            0.11
5  CC(C)OC(=O)c1ccc(NC(=O)c2cccc(C#Cc3ccccn3)c2)cc1 [Compound 65]     log10 EC50           -0.34
6  O=C(Nc1cccc(C#Cc2ccccn2)c1)c1ccc(N2CC3(CCC3)C2=O)cc1 [Compound 35]     log10 EC50            0.21
7  O=C(Nc1cccc(C#Cc2ccccn2)c1)c1ccc(-c2nnco2)cc1 [Compound 41]     log10 EC50            0.19

Q: Report log10 EC50 for O=C1CCc2cc(NC(=O)c3cccc(C#Cc4ccccn4)c3)ccc2N1 [Compound 54] please.
Ans: 0.48

Q: Report log10 EC50 for O=C(Nc1cccc(C#Cc2ccccn2)c1)c1ccc(C(=O)NC2CC2)cc1 [Compound 37] please.
Ans: 0.60

Q: Report log10 EC50 for O=C(Nc1ccc(N2CCCCC2=O)cc1)c1cccc(C#Cc2ccccn2)c1 [Compound 59] please.
Ans: 0.30

Q: Report log10 EC50 for O=C(Nc1ccc(C(=O)Nc2cccc(C#Cc3ccccn3)c2)cc1)c1ccc(F)cc1 [Compound 26] please.
Ans: -0.31

Q: Report log10 EC50 for N#CC1(c2ccc(C(=O)Nc3cccc(C#Cc4ccccn4)c3)cc2)CC1 [Compound 45] please.
Ans: 0.57

Q: Report log10 EC50 for O=C(Nc1ccc(NC(=O)N2CCC2)cc1)c1cccc(C#Cc2ccccn2)c1 [Compound 60] please.
Ans: 0.89

====

- Protocol description: in vitro
- Protocol conditions: African green monkey
Here the recorded CC50 is given for each entry.

Reference set (5 entries):
>>> print(df.to_string())
                                   compound  value_reported
0  CC1(C)CN(c2ccc(NC(=O)c3cccc(C#Cc4ccccn4)c3)cc2)C1=O [Compound 58]         > 40 µM
1  O=C(Nc1cccc(C#Cc2ccccn2)c1)c1ccc(C(=O)NC2CC2)cc1 [Compound 37]         > 30 µM
2  CC(=O)Nc1ccc(NC(=O)c2cccc(C#Cc3ccccn3)c2)cn1 [Compound 71]         > 30 µM
3  CC(C)(C)c1ccc(NC(=O)c2cccc(C#Cc3ccccn3)c2)cc1 [Compound 67]         > 30 µM
4  CCCC(=O)Nc1ccc(C(=O)Nc2cccc(C#Cc3ccccn3)c2)cc1 [Compound 7]         > 30 µM

Q: Report CC50 for CCN(C(C)=O)c1ccc(NC(=O)c2cccc(C#Cc3ccccn3)c2)cc1 [Compound 56] please.
Ans: > 30 µM

Q: Report CC50 for O=C(Nc1cccc(C#Cc2ccccn2)c1)c1ccc(-c2ccn[nH]2)cc1 [Compound 40] please.
Ans: 38.6 µM

Q: Report CC50 for O=C(Nc1cccc(C#Cc2ccccn2)c1)c1ccc(NC(=O)C(F)(F)F)cc1 [Compound 10] please.
Ans: > 30 µM

Q: Report CC50 for O=C(Nc1cccc(C#Cc2ccccn2)c1)c1ccc(N2CCNC2=O)cc1 [Compound 14] please.
Ans: > 30 µM

Data provenance: patent US11905306B2
